system: lipid peroxide formation in rat brain tissue homogenate; assay: Activity to inhibit lipid peroxide formation in rat brain tissue homogenate (TBA method); format: biochemical; conditions: 10^-5 M; 5% rat brain homogenate, 37° C., 1 hour; n=3, mean; vs. DMSO reference
Observation type: Inhibition rate (lipid peroxide formation)

Some solved entries appear below for comparison.
                                   compound  result
0    CCCCCCCCCCCCCCOc1ccc(C2=C(O)COC2=O)cc1  100.0%
1           O=C1O[C@H]([C@@H](O)CO)C(O)=C1O  -71.6%
2  CCCCCCCCCCCCOc1ccc(C2=C(O)C(C)OC2=O)cc1 (stereo not shown)  100.0%
3       CCCCCCCCCCCOc1ccc(C2=C(O)COC2=O)cc1   89.7%
4           CCCCCCCOc1ccc(C2=C(O)COC2=O)cc1  100.0%
5  CCCCCCCCCCOc1ccc(C2=C(O)C(c3ccccc3)OC2=O)cc1 (stereo not shown)  100.0%

Turning to the following compound.
The reported Inhibition rate (lipid peroxide formation) of the compound CCCCCCCCCCCCOc1ccc(C2=C(O)COC2=O)cc1 was 100.0%

The reported numbers originate from patent US4939274A.
